- Tested on: OVCAR-8 ovarian
- experiment notes: NCI tumour cell line growth inhibition, 48 h; in the data active means GI50 below about 0.43 µM; inactive means the rest
Mark one answer only. Choices: label 1 = active, label 0 = inactive

Here's what some known entries look like.
Request: What is the recorded call for this compound in the test? COc1cccc(-n2nc(C)c3c(N/N=C(\C)c4ccncc4)ncnc32)c1
Response: label 0

Request: Try this compound too: CC(=O)OC[C@]12CC[C@@H](C(=O)CBr)[C@@H]1[C@H]1CC[C@@H]3[C@@]4(C)CCCNC(C)(C)[C@@H]4CC[C@@]3(C)[C@]1(C)CC2
Response: label 0

Request: Try this compound too: CCCc1cc(=O)[nH]c(-n2nc(C)cc2C)n1
Response: label 0

Request: Try this compound too: NC(=O)c1ccccc1Nc1ccc2nnc(-c3ccncc3)n2n1
Response: label 0

Request: Try this compound too: CN[C@H](C#Cc1c(F)ccc2c1/C(=C/c1[nH]ccc1OC)C(=O)N2)CO
Response: label 0

Request: Try this compound too: NC(=O)c1c(NC(=O)c2ccccn2)sc2c1CCC(=O)C2
Response: label 0

Request: Try this compound too: COc1cc(Nc2c(C#N)cnc3cc(OCCCN4CCN(C)CC4)c(OC)cc23)c(Cl)cc1Cl
Response: label 0

Request: Try this compound too: COc1ccc(-c2nc(-c3ccccc3)c(-c3ccccc3)[nH]2)cc1OC1CCCC1
Response: label 0

***
Request: What is the recorded call for this compound in the test? Cc1cc(C(=C2C=CC(=Nc3ccccc3)C=C2)c2ccc(Nc3ccccc3)cc2)ccc1N
Response: label 1

Request: Try this compound too: COc1cccc(C2=C(c3c(C)n(C)c4ccccc34)C(=O)NC2=O)c1
Response: label 0

Request: Try this compound too: COc1cccc(-c2nn(-c3ccccc3)cc2-c2ccnc(NCCCNC(=O)Nc3ccc(Cl)c(Cl)c3)c2)c1
Response: label 0

Request: Try this compound too: CNCCCn1c2c(c3ccc([N+](=O)[O-])cc3c1=O)C(=O)c1cc(OC)cnc1-2
Response: label 1

Request: Try this compound too: Nc1nc(N)c2nc(CNc3ccc(C(=O)NC(CC(=O)O)C(=O)O)cc3)cnc2n1 (stereo not given)
Response: label 0

Request: Try this compound too: C1COCCN1.C1COCCN1.NC1CCCCC1N.[Cl-].[Pt+2] (stereo not given)
Response: label 0

Request: Try this compound too: CCCCC[C@H]1C/C=C2/C(=O)C=C[C@@H]2C/C=C\CCCC(=O)O[C@@H](CCCCC)C/C=C2/C(=O)C=C[C@@H]2C/C=C\CCCC(=O)O1
Response: label 1

---

- Tested on: MALME-3M melanoma
- experiment notes: NCI tumour cell line growth inhibition, 48 h
I'd appreciate it if you could supply TGI values for the items below.

Request: // returns reported TGI for input COc1cc(Nc2c(C#N)cnc3cc(OCCCN4CCN(C)CC4)c(OC)cc23)c(Cl)cc1Cl
Response: 3.67 µM

Request: Try this molecule too: Cc1cn(C2CC(O)C(COC(=O)NCCC(F)(F)C(F)(F)C(F)(F)C(F)(F)F)O2)c(=O)[nH]c1=O (stereo unspecified)
Response: > 100 µM

Request: Try this molecule too: CCCCc1ccc(Nc2nc(SC)c3[nH]cnc3n2)cc1
Response: > 100 µM

Request: Try this molecule too: Cc1ccccc1C(=O)N/N=C/c1ccc(Sc2nccn2C)c([N+](=O)[O-])c1
Response: > 100 µM

Request: Try this molecule too: CC1CN(c2ccc(Cl)cc2)CC(C)OC(=O)O1 (stereo unspecified)
Response: > 100 µM

Could you report TGI for every entry in the following list?
1. CC1CC[C@@]2(OC1)OC1C[C@H]3[C@@H]4CC=C5CC(OC6OC(CO)C(OC7OC(CO)C(O)C(OC8OCC(O)C(O)C8O)C7OC7OC(CO)C(O)C(O)C7O)C(O)C6O)CCC5(C)[C@H]4CCC3(C)C1[C@@H]2C (stereo partly specified)
2. O=C(O)c1cc2ccc3ccccc3c2oc1=O
3. COc1ccc(C(=O)c2sc(Nc3ccc(Cl)cc3)nc2N)cc1
4. O=C(C[n+]1ccc2ccccc2c1)c1ccc2ccc3ccccc3c2c1
5. N#CC(=C1CCN(CCCC(=O)c2ccc(F)cc2)CC1)c1ccccc1

Response:
1. > 25 µM
2. > 100 µM
3. > 59.4 µM
4. 22.2 µM
5. > 100 µM

Could you report TGI for every entry in the following list?
1. COC(=O)C(C#CCCCCC#CC(NC(=O)OCc1ccccc1)(C(=O)OC)C(F)(F)F)(NC(=O)OCc1ccccc1)C(F)(F)F (stereo unspecified)
2. COc1cc2ccccc2oc1=O

Response:
1. > 100 µM
2. > 100 µM

Could you report TGI for every entry in the following list?
1. NC(=O)c1cc2ccc(O)cc2oc1=Nc1ccccc1
2. O=c1ccn([C@@H]2C[C@@H]2CO)c(=O)[nH]1
3. CN(C)C(=S)/N=c1\ssc(=S)n1Cc1cccnc1
4. COc1ccc(-n2c(=O)[nH]n(C(C)=O)c2=O)cc1

Response:
1. > 100 µM
2. > 100 µM
3. > 100 µM
4. > 100 µM

---

I'd appreciate it if you could supply GI50 values for the items below.
- Tested on: MALME-3M melanoma
- experiment notes: NCI tumour cell line growth inhibition, 48 h

Example results:
Request: // returns reported GI50 for input c1csc(-c2cn3nc(-c4c[nH]c5ccccc45)sc3n2)c1
Response: 10.4 µM

Request: Try this compound too: O=c1oc(Cl)c(Cl)c2ccccc12
Response: 50 µM

Request: Try this compound too: COc1cc2c3c(n(CCCCN)c(=O)c2cc1OC)-c1cc2c(cc1C3=O)OCO2
Response: 4.11 µM

Could you report GI50 for every entry in the following list?
1. Nc1nc(N)c2nc(CNc3ccc(C(=O)NC(CC(=O)O)C(=O)O)cc3)cnc2n1 (stereo not given)
2. C=CCC1(O)c2ccccc2C(=O)c2c(NCCN(CC(=O)OCC)CC(=O)OCC)cccc21 (stereo not given)

Response:
> 100 µM
> 100 µM

---

I'd appreciate it if you could supply log10(TGI) values for the items below.
- Tested on: 786-0 renal
- experiment notes: NCI tumour cell line growth inhibition, 48 h
All values: base-10 log of TGI in µM.

Example results:
Request: // returns reported log10(TGI) for input CC(C)C1=CC23CCC4C(C)(C(=O)O)CCCC4(C)C2CC1C1C(=O)N(c2ccccc2N2C(=O)C4C5CC6C7(C)CCCC(C)(C(=O)O)C7CCC6(C=C5C(C)C)C4C2=O)C(=O)C13 (configuration not stated)
Response: 1.80

Request: Try this compound too: O=S(=O)(Nc1ccc(Br)c(Cl)c1)c1ccc(-c2cnc(C3CC3)o2)cc1
Response: 1.25

Request: Try this compound too: C=C1/C(=C\C=C2/CCC[C@]3(C)[C@@H]([C@H](C)CCCC(C)(C)O)CC[C@@H]23)C[C@@H](OC(=O)CBr)C[C@@H]1O
Response: 0.28

Request: Try this compound too: CCOP(=O)(OCC)C(Nc1ccc(Br)cc1)c1cccc([N+](=O)[O-])c1 (configuration not stated)
Response: 1.65

Request: Try this compound too: COc1cc([C@@H]2c3cc4c(cc3[C@@H](OC(=O)c3ccc(N)cc3)C3COC(=O)[C@@H]32)OCO4)cc(OC)c1O (some centres not stated)
Response: 1.77

Could you report log10(TGI) for every entry in the following list?
1. CC1=NN(c2cccc(Cl)c2)C2(SCC(=O)N2c2nc3ccccc3s2)/C1=C\c1cccs1 (configuration not stated)
2. CCC(C)[C@H]1O[C@]2(C=C[C@@H]1C)C[C@@H]1C[C@@H](C/C=C(\C)[C@@H](OC3C[C@H](OC)C(O[C@H]4C[C@H](OC)[C@@H](O)[C@H](C)O4)[C@H](C)O3)[C@@H](C)/C=C/C=C3\CO[C@@H]4[C@H](O)C(C)=C[C@@H](C(=O)O1)[C@]34O)O2 (some centres not stated)

Response:
1: 1.61; 2: 0.19

Could you report log10(TGI) for every entry in the following list?
1. NCCSC(c1ccccc1)c1ccccc1
2. Cc1ccc(N(C(=O)Nc2ccccc2)C2=NCC(C)S2)cc1C (configuration not stated)
3. CCCCC[C@H]1C/C=C2/C(=O)C=C[C@@H]2C/C=C\CCCC(=O)O[C@@H](CCCCC)C/C=C2/C(=O)C=C[C@@H]2C/C=C\CCCC(=O)O1
4. CNCCCn1c2c(c3ccc([N+](=O)[O-])cc3c1=O)C(=O)c1cc(OC)cnc1-2

Response:
1.52
1.67
-0.09
-0.72

Could you report log10(TGI) for every entry in the following list?
1. CCOC(=O)C(NC(=O)c1ccco1)(Nc1nc2ccc(OCC)cc2s1)C(F)(F)F (configuration not stated)
2. CNc1ccc2c(c1)[C@@]1(C)c3ccccc3[C@@H](C2)N1C
3. COc1cc(Nc2c(C#N)cnc3cc(OCCCN4CCN(C)CC4)c(OC)cc23)c(Cl)cc1Cl

Response:
1.84
1.54
1.00

Could you report log10(TGI) for every entry in the following list?
1. Cc1cc(N(CCC#N)CCC#N)ccc1/C(N=Nc1ccc(C(=O)O)cc1)=N\NC(=O)c1cc(Cl)ccc1O
2. CC[C@]1(Cc2ccc(OC)c(OC)c2)C=[N+]([O-])O[C@H](OC2CCCC2(c2ccccc2)c2ccccc2)[C@@H]1OC(C)=O (some centres not stated)

Response:
1: 1.60; 2: 0.56
